# measurement-protocol: label from the status in PepcDB records

biopolymer-sequence: MKTMNYSLIRILFALVIGLVLVLWPNTAASYIVITIGVAFLIPGVISLFSFFGRKRSEHEPAPRFPIEGIGSLLFGLWLIVMPEFFADVLMFLLGFILIMGGVQQIASLSMARRWTPVPGIFYLVPSLILIAGVIALFNPTGVRNTAFIIIGISSLVYSLSELINWFKFARRRPKTPVTPHDEDIEDAKIIE
protein production: failed
--
biopolymer-sequence: EVGVNMAVTPGKVIFQNEIMQLIQYEPATATVQRTPLLIVPPWINKYYILDLKPEKSFIKWCVDQGLTVFVISWVNPDKSLADKDFADYMKLGPLTAMDVVEKVTGEMKVHTLGYCVGGTLLASTLAWLAERRRVRVTSATFLTTQVDFTHAGDLMVFVDEEQISAVEREMKVTGVLEGAKMAMAFNMLRPNDLIWSYVVNNYLKGQPPQAFDLLHWNSDATRMPAANHSYYLRNCYLDNKLSAGTMVLDNTTLDLTKVKVPIYNLATREDHIAPAESVLYGSQFFGGPVKFVLSGSGHI
protein production: failed

The origin of these recorded values is a protein production outcome set (Wang et al. 2014).
